System: Human Heme Oxygenase-1 (HMOX-1)
Experiment: ELISA assay to measure human heme oxygenase-1 (HMOX-1) in HepG2 lysate
Type: cell-based
Conditions: fold change of human HMOX1 protein levels relative to DMSO control, HepG2
Source text: Example 143. ELISA Assay to Measure Human Heme Oxygenase-1 (HMOX-1) in HepG2 lysate Reagents and Technical Notes: ELISA capture antibody, standard HO-1, detection antibody and streptavidin HRP were supplied in the DuoSet IC Human total HO-1 ELISA from R&D systems (DYC3776-2). The substrate cocktail was KPL LumiGLO reserve Chemiluminescent Substrate (54-71-00). […] Measurement of HMOX1 (“HO-1”) • 1. […] Measured chemiluminescence on spectramax M5 using 150 ms integration. […]
measure: Maximum Fold induction
Could you keep your reply to the number by itself?

Recorded Maximum Fold induction, per entry:
query-smiles	Maximum Fold induction
CN1CCC(n2c(Nc3nc4ccc(OC(F)(F)F)cc4s3)nc3cc(C(=O)O)ccc32)CC1	13
Cn1c(Nc2nc3ccccc3o2)nc2cc(C(=O)C(F)(F)F)ccc21	21
Cn1c(Nc2nc3ccc(C(C)(C)O)cc3o2)nc2cc(C(=O)NCCO)ccc21	17
Cn1c(Nc2nc3c(s2)CC(C)(C)CC3)nc2cc(C(=O)NCCOCCO)ccc21	41
Cn1c(Nc2nc3cc(C(F)(F)F)ccc3o2)nc2cc(C(=O)NCCOCCO)ccc21	56

Please give the documented Maximum Fold induction of Cn1c(Nc2nc3ccc(N4CCOCC4)cc3o2)nc2cc(C(=O)NCCOCCO)ccc21 36
